Target: T1, human TIGIT protein (human, UniProt Q495A1 22-141, limits assumed)
T1 construct: Recombinant protein (Genentech) used in ELISA screening and as SPR analyte; also called TIGIT antigen
T1 sequence: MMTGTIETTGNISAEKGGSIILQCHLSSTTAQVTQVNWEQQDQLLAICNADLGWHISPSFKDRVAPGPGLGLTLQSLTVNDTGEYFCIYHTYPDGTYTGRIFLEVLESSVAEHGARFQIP
Assay: SPR, captured mAb
From the text: Briefly, a series S CM5 biosensor chip was activated with N-ethyl-N′-(3-dimethylaminopropyl)-carbodiimide hydrochloride (EDC) and N-hydroxysuccinimide (NHS) reagents according to the supplier's (GE Healthcare Biosciences, Piscataway, N.J.) instructions, and a human antibody capture kit was applied to couple goat anti-human Fc IgGs in order to achieve approximately 10,000 response units (RU) on each flow cell, followed by blocking un-reacted groups with 1M ethanolamine. […]

binder | koff, s⁻¹
h15C8.L3H1 (antibody, V domains shown, VL: Y71F against h15C8.L1H1; FR/HVR pieces) VH: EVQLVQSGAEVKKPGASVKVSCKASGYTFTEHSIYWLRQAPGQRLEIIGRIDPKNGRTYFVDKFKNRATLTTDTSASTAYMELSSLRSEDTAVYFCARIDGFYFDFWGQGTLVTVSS VL: DIQLTQSPSFLSASVGDRVTITCKGSQNVNKYLVWYQQKPGKAPKLLIYSTDNLQSGIPSRFSGSGSGTEFTLTISSLQPEDFATYFCYQYNNGFTFGQGTKVEIK | 0.000533
h6B2.L1H1 (antibody, V domains shown, Humanized; FR/HVR pieces in order; also called h1.6B2.L1H1) VH: EVTLKESGPALVKPTQTLTLTCTFSGFSLSTYGMGVSWIRQPPGKALEWLASIWWNGNTYYNPSLKSRLTVTKDASKNQAVLTMTNMDPVDTATYYCAHTGGAVITWFAYWGQGTLVTVSS VL: DIQMTQSPSSLSASVGDRVTITCKASQSVGKNIAWYQQKPGKSPKLLIYYASNRYTGVPSRFSGSGSGTDFTFTISSLQPEDIATYYCQHIYNSPYPFGQGTKVEIK | 0.00253
h15C8.L1H5 (antibody, V domains shown, VH: A67V against h15C8.L1H1; FR/HVR pieces) VH: EVQLVQSGAEVKKPGASVKVSCKASGYTFTEHSIYWLRQAPGQRLEIIGRIDPKNGRTYFVDKFKNRVTLTTDTSASTAYMELSSLRSEDTAVYFCARIDGFYFDFWGQGTLVTVSS VL: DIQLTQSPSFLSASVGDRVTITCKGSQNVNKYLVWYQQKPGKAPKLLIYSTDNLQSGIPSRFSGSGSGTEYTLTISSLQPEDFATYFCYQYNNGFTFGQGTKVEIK | 0.000567
h7E7.L5H1 (antibody, V domains shown, VL: I58V, Y71F, F87Y against h7E7.L1H1; FR/HVR pieces) VH: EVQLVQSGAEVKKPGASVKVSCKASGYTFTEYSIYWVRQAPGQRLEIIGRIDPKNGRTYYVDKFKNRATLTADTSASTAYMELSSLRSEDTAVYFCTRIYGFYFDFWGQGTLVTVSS VL: DIQLTQSPSFLSASVGDRVTITCKGSQNVNKYLVWYQQKPGKAPKLLIYNTDNLQSGVPSRFSGSGSGTEFTLTISSLQPEDFATYYCYQYNNGFTFGQGTKVEIK | 0.00104
h15C8.L1H4 (antibody, V domains shown, VH: I48M against h15C8.L1H1; FR/HVR pieces) VH: EVQLVQSGAEVKKPGASVKVSCKASGYTFTEHSIYWLRQAPGQRLEIMGRIDPKNGRTYFVDKFKNRATLTTDTSASTAYMELSSLRSEDTAVYFCARIDGFYFDFWGQGTLVTVSS VL: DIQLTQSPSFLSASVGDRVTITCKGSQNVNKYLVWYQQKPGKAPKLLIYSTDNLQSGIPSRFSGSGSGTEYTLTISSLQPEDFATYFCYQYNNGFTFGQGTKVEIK | 0.000498
